target: 5-hydroxytryptamine receptor 2A (Homo sapiens, UniProt P28223); assay: [125I]DOI Radioligand Binding Assay: Radioligand binding assays for human 5-HT2A receptor was conducted using the 5-HT2 agonist [125I]DOI as radioligand. To define nonspecific binding, 10 μM DOI was used for all assays. For competitive binding studies, 0.5 nM [125I]DOI was used and compounds were assayed over a range of 0.01 nM to 10 μM. Assays were conducted in a total volume of 200 μl in 96-well Perkin Elmer GF/C filter plates in assay buffer (50 mM Tris-HCl, pH 7.4, 0.5 mM EDTA, 5 mM MgCl2, and 10 μM pargyline). Assay incubations were performed for 60 min at room temperature and were terminated by rapid filtration under vacuum pressure of the reaction mixture over Whatman GF/C glass fiber filters presoaked in 0.5% PEI using a Brandell cell harvestor. Filters were then washing several times with ice-cold wash buffer (50 mM Tris-HCl, pH 7.4). Plates were then dried at room temperature and counted in a Wallac microBeta scintillation counter.
Sequence (P28223 whole entry): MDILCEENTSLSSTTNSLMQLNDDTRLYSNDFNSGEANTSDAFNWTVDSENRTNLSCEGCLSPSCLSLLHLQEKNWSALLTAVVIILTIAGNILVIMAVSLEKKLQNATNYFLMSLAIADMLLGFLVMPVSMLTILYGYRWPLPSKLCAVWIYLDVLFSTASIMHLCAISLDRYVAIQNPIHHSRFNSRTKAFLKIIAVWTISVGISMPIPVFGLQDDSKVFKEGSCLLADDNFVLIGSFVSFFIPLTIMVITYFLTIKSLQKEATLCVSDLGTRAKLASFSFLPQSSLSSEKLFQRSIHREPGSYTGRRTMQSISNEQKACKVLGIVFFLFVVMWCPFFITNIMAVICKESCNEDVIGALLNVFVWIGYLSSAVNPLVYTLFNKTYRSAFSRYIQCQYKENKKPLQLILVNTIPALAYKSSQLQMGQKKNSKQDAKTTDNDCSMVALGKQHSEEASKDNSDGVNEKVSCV
# key: entry, value: IC50
The reply should be a number in µM, with the unit left off.

{"columns": ["compound", "unit.of.measure", "value.observed"],
 "data": [
  ["CCC(C)OC(=O)Nc1ccc(OCCN2CCCC2)c(-c2c(Br)cnn2C)c1 (stereo not drawn)", "µM", 0.0011],
  ["Cn1nccc1-c1cc(NC(=O)NCc2ccc(Cl)cc2)ccc1OCCN1CCCC1", "µM", 0.0102]
]}

Please look at the following compound next.
Any idea what its IC50 is? The compound is Cn1nccc1-c1cc(NC(=O)Cc2ccc(F)cc2)ccc1OCCN1CCCCC1
0.0137
